experiment: qHTS for Inhibitors of Plasmodium falciparum (7G8) proliferation (AID 504316); note: nearly all actives have a fitted effect of over 65% in size; settings: P. falciparum 7G8 in erythrocytes, SYBR Green DNA, 72 h; series mostly up to 6.7 µM
Results filed as inconclusive are left out. Active and inactive are the calls of the source. Calls come from the whole dose curve; as a rule, active = well fitted inhibition curve with a large enough effect; inconclusive = small, poorly fitted or top-dose-only effect; inactive = flat fitted curve, though single readings scatter.
Endpoint: outcome

compound=CC[C@H](C)[C@@H](NC(=O)O[C@@H]1C(=O)c2ccc(OC)cc2O[C@H]1c1ccc2c(c1)OCO2)C(=O)OC readout_value=inactive
compound=CCCCn1c(C)cc2c(c1=O)[C@H]1O[C@](c3ccsc3)(Cc3cc(OC)c(OC)cc31)O2 readout_value=inactive
compound=CCN1C(=O)[C@@H]2[C@H]3[C@H](O)[C@H](O)CC(=NOCC[C@@H]4C=C[C@H](OC(C)=O)[C@@H](COC(C)=O)O4)[C@@H]3CC[C@H]2C1=O readout_value=inactive
compound="CCN1C(=NCCCOC(C)C)NC(c2ccccc2)C(C(=O)OC)=C1C (centres undefined)" readout_value=inactive

---

experiment: qHTS for Antimalaria activity screened against the NCATS CANVASS Library (AID 1347380); note: nearly all actives have a fitted effect of over 40% in size; settings: P. falciparum Dd2 growth, SYBR Green fluorescence, 72 h; series mostly up to 28.7 µM
Results filed as inconclusive are left out. Activity calls are given as the source filed them. The call rests on the fitted dose curve; in most records, active means well fitted cell-killing curve with a large enough effect; inconclusive means small, poorly fitted or top-dose-only effect, or effect the other way; inactive means no such curve, though single readings can be large or run the other way.
Response enum: t = active, f = inactive

compound=COc1cc(O)c2c3c(c(O)cc(C)c13)C(=O)OC2 group_label=f
compound="C=C1C[C@@]23C=CC(=O)[C@@](C)(CCC(=O)Nc4c(O)ccc(C(=O)O)c4O)C2C[C@@H]1C(O)C3 (stereo not given in full)" group_label=f
compound=CS/C=C/C(N)=O group_label=f
compound=CC(=O)O[C@@H]1C=C2C(=O)OC[C@]2(O)[C@@]2(C)CCCC(C)(C)[C@H]12 group_label=t

We next turn to a different compound, shown below.
Request: Status in this test for O=Cc1ccc2n1C[C@@]1(OC2)O[C@H](CO)[C@@H](O)[C@@H]1O ?
Response: f

---

Tested on: Zika virus NS2B-NS3 protease (linked construct)
Assay: Primary screen NINDS Rhodamine qHTS for Zika virus inhibitors (AID 1347160); note: nearly all actives have a fitted effect of over 55% in size
Settings: purified NS2B-NS3 protease, Rhodamine110 substrate fluorescence; series mostly up to 57.1 µM
Text: Avindra Nath, Ph.D., National Institute of Neurological Disorders and Stroke (NINDS), Bethesda, MD Radhakrishnan Padmanabhan, Ph.D., Georgetown University (GU), Washington D.C. Zika Virus causes congenital defects, including microcephaly and is associated with Guillain-Barre syndrome, eningoencephalitis and myelitis in infected adult. […]
Results filed as inconclusive are left out. Activity calls are given as the source filed them. Calls come from the whole dose curve; as a rule, active = well fitted inhibition curve with a large enough effect; inconclusive = small, poorly fitted or top-dose-only effect; inactive = no such curve, though single readings can be large or run the other way. Numbered stars: 1 amine (or outer) side, 2 acyl side, 3 side chain; on linkers, the order of the positions; unused ones are H or OH. Square brackets hold non-standard residues; d marks the D form. Peptide text beside a SMILES is read from it. ξ: configuration not given here. X4 = O=C(C1CC2(c3ccc(O)cc3)c3ccccc3NC2N1[*:1])[*:2]; ξW = NC(Cc1c[nH]c2ccccc12)C(=O)O; ξY = NC(Cc1ccc(O)cc1)C(=O)O
Classes to choose from: active, inactive

molecule=COc1ccc(CNC(=O)Nc2ncc([N+](=O)[O-])s2)cc1 study_system="Zika virus NS2B-NS3 protease (linked construct)" group_label=inactive
molecule=c1ccc(-c2cnc(Nc3ccc(OCCN4CCCC4)cc3)s2)cc1 study_system="Zika virus NS2B-NS3 protease (linked construct)" group_label=inactive
molecule="COC1CC(=O)C23C(=O)NC(CC(C)C)C2C(C)C(C)=CC3/C=C(\\C)CCC(O)C1O (stereo unspecified)" study_system="Zika virus NS2B-NS3 protease (linked construct)" group_label=inactive
molecule=Cc1cc(N=Nc2ccc(S(=O)(=O)Nc3ccccn3)cc2)c(N)cc1O study_system="Zika virus NS2B-NS3 protease (linked construct)" group_label=inactive
molecule=C[C@@]12C[C@@H](C[C@H]3C(=O)O[C@@H](c4ccoc4)[C@H](OC(=O)c4ccccc4)[C@@H]31)OC2=O study_system="Zika virus NS2B-NS3 protease (linked construct)" group_label=inactive
molecule="CC[C@H](C)[C@H](NC(=O)C(Cc1ccc(O)cc1)NC(=O)C(Cc1c[nH]c2ccccc12)NC(=O)[C@H](C)N)C(=O)N1C(C(=O)NC(Cc2ccc(O)cc2)C(=O)O)CC2(c3ccc(O)cc3)c3ccccc3NC12 (stereo partly specified) (H-A[ξW][ξY]I[X4][ξY]-OH)" study_system="Zika virus NS2B-NS3 protease (linked construct)" group_label=active
molecule=CC(=O)Nc1ccc(C(=O)Nc2ccccc2N)cc1 study_system="Zika virus NS2B-NS3 protease (linked construct)" group_label=inactive
molecule=C[C@@H](c1nc(-c2ccc(C#N)cc2)cs1)[C@](O)(Cn1cncn1)c1cc(F)ccc1F study_system="Zika virus NS2B-NS3 protease (linked construct)" group_label=inactive

Request: Could you kindly confirm the outcome this assay logged for C[C@@H]1C(=O)[C@]23CC[C@H]1C[C@]21O[C@H]2C(C)(C)C=CC(=O)[C@@]23COC1=O ?
Response: active

Request: Can you look up the reported call for C[C@@H](O[C@H]1OCCN(Cc2n[nH]nc2CN(C)C)[C@H]1c1ccc(F)cc1)c1cc(C(F)(F)F)cc(C(F)(F)F)c1 for me?
Response: inactive

Request: Check the results log: what was the call for Oc1ccc([C@H]2Oc3ccc(/C=C/c4cc(O)cc(O)c4)cc3C2c2cc(O)cc(O)c2)cc1 (stereo partly specified) ?
Response: active
